Provenance of the data: ChEMBL document CHEMBL3885861

Species: Rattus norvegicus
EXPERIMENT_DESCRIPTION: Open TG-GATES - Regimen: Daily Repeat
Assay type: toxicity, organism-based, Sprague-Dawley
Design: regimen Daily Repeat, gender Male, age 6 weeks
MEASUREMENT_CONTEXT: in vivo, po, 0 mg/kg, […], tissue Blood, route gavage, dose level Control, time 7 day

SMILES_DATA | Ht [%]
Oc1ncnc2[nH]ncc12 | 45.2
CC(C)(S)[C@@H](N)C(=O)O | 43.2
Nc1nc(N)c2nc(-c3ccccc3)c(N)nc2n1 | 42.9
CCc1oc2ccccc2c1C(=O)c1cc(I)c(O)c(I)c1 | 41.6
CCC(C)(C)C(=O)O[C@H]1C[C@@H](C)C=C2C=C[C@H](C)[C@H](CC[C@@H]3C[C@@H](O)CC(=O)O3)[C@H]21 | 38.8
